Data origin: paper PMC7400577

# tgt: hBGT1 (Homo sapiens)
# Construct: expressed in transfected cells
# Sequence (P48065 whole entry): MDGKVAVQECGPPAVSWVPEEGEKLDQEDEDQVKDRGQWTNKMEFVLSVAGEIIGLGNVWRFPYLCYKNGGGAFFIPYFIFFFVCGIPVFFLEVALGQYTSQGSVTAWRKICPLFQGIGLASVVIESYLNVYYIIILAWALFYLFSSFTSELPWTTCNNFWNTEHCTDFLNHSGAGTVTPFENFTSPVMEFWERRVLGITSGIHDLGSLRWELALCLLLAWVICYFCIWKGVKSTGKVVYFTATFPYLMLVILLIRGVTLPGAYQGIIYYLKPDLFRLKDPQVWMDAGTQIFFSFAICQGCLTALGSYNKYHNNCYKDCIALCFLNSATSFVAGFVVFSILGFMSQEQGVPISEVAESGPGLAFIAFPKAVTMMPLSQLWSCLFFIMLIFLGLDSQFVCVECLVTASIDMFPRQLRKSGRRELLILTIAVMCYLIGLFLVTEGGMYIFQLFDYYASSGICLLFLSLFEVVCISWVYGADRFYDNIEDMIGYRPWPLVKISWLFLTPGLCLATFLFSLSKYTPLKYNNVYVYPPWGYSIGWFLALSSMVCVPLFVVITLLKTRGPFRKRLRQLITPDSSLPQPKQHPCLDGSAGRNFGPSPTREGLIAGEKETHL
# Assay type: cell-based
# experimental.conditions: estimated from [3H]GABA uptake IC50 values, CHO Flp-In cells
result.type: subtype-selectivity for hBGT1 over the other hGATs

Take a look at these entries with their results.
{"compound": "C[C@H]1N=C(N)NC[C@@H]1C(=O)O (single isomer, unassigned) [u-15b]", "tgt": "hBGT1 (Homo sapiens)", "reported": "at least 12 times"}
{"compound": "C[C@@H]1N=C(N)NC[C@@H]1C(=O)O (single isomer, unassigned) [l-15b]", "tgt": "hBGT1 (Homo sapiens)", "reported": "2–3 times"}
{"compound": "C[C@@H]1N=C(N)NC[C@@H]1C(=O)O (single isomer, unassigned) [l-15a]", "tgt": "hBGT1 (Homo sapiens)", "reported": "≥ 29 times"}
{"compound": "NC1=NC=C(C(=O)O)CN1.O=C(O)C(F)(F)F [compound 11]", "tgt": "hBGT1 (Homo sapiens)", "reported": "≥ 21 times"}
{"compound": "CCN1CC(C(=O)O)CN=C1N.Cl (stereo not shown) [compound 3]", "tgt": "hBGT1 (Homo sapiens)", "reported": "at least 12 times"}

Supply subtype-selectivity for hBGT1 over the other hGATs measured with hBGT1 (Homo sapiens) for C[C@H]1N=C(N)NC[C@@H]1C(=O)O (single isomer, unassigned) [u-15a] . 2–3 times
